assay: Partition coefficient, log Kp of the compound in micelle-HEPES buffer at pH 7.4; format: physicochemical
Property Label: log Kp

item_smiles=CC1(C)C=Cc2ccc3c(=O)c4ccccc4oc3c2O1 quantitative_result=3.5
item_smiles=COc1c2c(cc3c(=O)c4ccccc4oc13)OC(C)(C)C=C2 quantitative_result=4.07
item_smiles=COc1c2c(cc3c(=O)c4ccccc4oc13)OC(C)(C)CC2 quantitative_result=3.88
item_smiles=CC1(C)CCc2cc(O)c3c(=O)c4ccccc4oc3c2O1 quantitative_result=4.28
item_smiles=COc1cc2c(c3oc4ccccc4c(=O)c13)OC(C)(C)CC2 quantitative_result=3.46
item_smiles=CC1(C)C=Cc2cc(O)c3c(=O)c4ccccc4oc3c2O1 quantitative_result=4.08
item_smiles=CC1(C)CCc2c(cc(O)c3c(=O)c4ccccc4oc23)O1 quantitative_result=4.27
item_smiles=CC1(C)CCc2cc3oc4ccccc4c(=O)c3c(O)c2O1 quantitative_result=3.88
item_smiles=COc1c2c(cc3oc4ccccc4c(=O)c13)C=CC(C)(C)O2 quantitative_result=3.76
item_smiles=CC1(C)C=Cc2c(ccc3oc4ccccc4c(=O)c23)O1 quantitative_result=4.1
item_smiles=CC1(C)C=Cc2c(cc3c(=O)c4ccccc4oc3c2O)O1 quantitative_result=3.29
item_smiles=COc1cc2c(c3oc4ccccc4c(=O)c13)OC(C)(C)C=C2 quantitative_result=3.33
item_smiles=CC1(C)C=Cc2cc3oc4ccccc4c(=O)c3c(O)c2O1 quantitative_result=4.15
item_smiles=COc1c2c(cc3oc4ccccc4c(=O)c13)CCC(C)(C)O2 quantitative_result=3.58
item_smiles=COc1c2c(cc3c(=O)c4ccccc4oc13)C=CC(C)(C)O2 quantitative_result=3.83
item_smiles=CC1(C)C=Cc2c(cc(O)c3c(=O)c4ccccc4oc23)O1 quantitative_result=4.02
item_smiles=CC1(C)CCc2c(cc3oc4ccccc4c(=O)c3c2O)O1 quantitative_result=4.32
item_smiles=CC1(C)C=Cc2c(cc3oc4ccccc4c(=O)c3c2O)O1 quantitative_result=4.06

The reported measurements were obtained from ChEMBL document CHEMBL2434894.
